study target: F508delCFTR (Homo sapiens, UniProt P13569, DEL508-508)
Construct: expressed in transfected cells; host or cells: CFBE41o- human lung-derived epithelial cells (CFBE4lo-F508delCFTR-HRP), doxycycline-inducible
Sequence (P13569 with tags, fused parts or gaps DEL508-508): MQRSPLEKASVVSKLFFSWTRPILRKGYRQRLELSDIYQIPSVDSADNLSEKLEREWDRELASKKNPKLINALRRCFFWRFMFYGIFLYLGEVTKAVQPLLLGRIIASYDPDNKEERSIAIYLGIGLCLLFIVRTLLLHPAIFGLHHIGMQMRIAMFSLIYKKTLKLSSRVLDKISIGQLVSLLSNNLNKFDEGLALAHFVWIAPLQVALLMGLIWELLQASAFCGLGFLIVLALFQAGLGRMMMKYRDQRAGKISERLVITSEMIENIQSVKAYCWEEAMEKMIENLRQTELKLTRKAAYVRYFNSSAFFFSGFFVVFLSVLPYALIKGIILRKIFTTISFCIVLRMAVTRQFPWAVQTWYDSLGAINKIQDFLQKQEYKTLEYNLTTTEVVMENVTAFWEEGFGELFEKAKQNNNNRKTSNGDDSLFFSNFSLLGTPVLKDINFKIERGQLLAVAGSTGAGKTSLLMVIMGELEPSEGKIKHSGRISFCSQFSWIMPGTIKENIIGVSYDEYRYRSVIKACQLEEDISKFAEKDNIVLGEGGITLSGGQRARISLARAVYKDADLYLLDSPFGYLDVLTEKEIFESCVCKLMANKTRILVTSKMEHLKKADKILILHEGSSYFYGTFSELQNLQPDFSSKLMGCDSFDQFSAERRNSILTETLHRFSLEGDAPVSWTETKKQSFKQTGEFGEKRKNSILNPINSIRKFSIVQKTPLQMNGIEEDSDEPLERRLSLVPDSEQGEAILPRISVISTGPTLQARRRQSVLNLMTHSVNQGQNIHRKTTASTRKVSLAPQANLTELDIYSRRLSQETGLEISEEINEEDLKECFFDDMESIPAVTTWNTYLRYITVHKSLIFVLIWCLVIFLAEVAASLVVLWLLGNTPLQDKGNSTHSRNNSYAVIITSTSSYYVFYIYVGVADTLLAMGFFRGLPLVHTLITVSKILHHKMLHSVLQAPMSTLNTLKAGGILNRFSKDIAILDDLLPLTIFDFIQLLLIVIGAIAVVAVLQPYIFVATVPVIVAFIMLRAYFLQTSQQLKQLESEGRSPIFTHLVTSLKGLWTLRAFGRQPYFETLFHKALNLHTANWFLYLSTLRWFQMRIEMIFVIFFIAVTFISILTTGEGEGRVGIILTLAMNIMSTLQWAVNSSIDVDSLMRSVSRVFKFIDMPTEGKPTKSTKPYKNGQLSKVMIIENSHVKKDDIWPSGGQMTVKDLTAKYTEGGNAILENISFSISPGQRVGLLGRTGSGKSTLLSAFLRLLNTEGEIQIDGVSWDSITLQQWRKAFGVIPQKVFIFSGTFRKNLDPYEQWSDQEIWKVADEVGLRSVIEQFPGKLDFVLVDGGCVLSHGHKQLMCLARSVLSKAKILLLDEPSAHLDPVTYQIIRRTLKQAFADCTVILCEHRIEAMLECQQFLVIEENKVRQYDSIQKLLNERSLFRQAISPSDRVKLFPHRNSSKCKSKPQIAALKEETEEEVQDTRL
experiment summary: Cell Surface Expression-Horse Radish Peroxidase (CSE-HRP) Assay
Format: cell-based
test context: test compound without co-corrector; read-out: EC50 (without co-corrector)
pEC50: −log10 of the molar value.
property measured: pEC50

INSERT INTO assay_data (molecule, property_measured, readout_value) VALUES
  ('CC(C)(C)[C@H]1[C@H](NCc2ccc(F)cc2OCC2CC2)[C@H](c2ccccc2)N(C(=O)C2CCCCC2)[C@@H]1C(=O)O', 'pEC50', '5.00 to 6.00'),
  ('COc1ncc(C(F)(F)F)cc1CN[C@H]1[C@H](C(C)(C)C)[C@@H](C(=O)O)N(C(=O)[C@@H]2CCCO2)[C@H]1c1cccnc1C1CC1', 'pEC50', '5.00 to 6.00'),
  ('COc1ccc(C(C)(C)C)cc1CN[C@H]1[C@H](C(C)(C)C)[C@@H](C(=O)O)N(C(=O)C2CC3C(CC2C)C3(C)C)[C@H]1c1ccccc1 (stereo partly drawn)', 'pEC50', '5.00 to 6.00');

* * *

study target: F508delCFTR (Homo sapiens, UniProt P13569, DEL508-508)
Construct: expressed in transfected cells; host or cells: CFBE41o- human lung-derived epithelial cells (CFBE4lo-F508delCFTR-HRP), doxycycline-inducible
experiment summary: Cell Surface Expression-Horse Radish Peroxidase (CSE-HRP) Assay
Format: cell-based
test context: test compound without co-corrector; read-out: EC50 (without co-corrector)
Reported EC50 values for the following compounds.
property measured: EC50

INSERT INTO results (compound, property_measured, readout_value) VALUES
  ('CC(C)(C)[C@H]1[C@H](NCc2ccc(F)cc2C#N)[C@H](c2ccccc2)N(C(=O)C2CCCCC2)[C@@H]1C(=O)O', 'EC50', '> 10 µM'),
  ('COc1ccc(C(F)(F)F)cc1CN[C@H]1[C@H](C(C)(C)C)[C@@H](C(=O)O)N(C(=O)C2CCC(C)C2)[C@H]1c1ccccc1 (stereo partly drawn)', 'EC50', '1 to 10 µM'),
  ('Cc1ccc(CN[C@H]2[C@H](C(C)(C)C)[C@@H](C(=O)O)N(C(=O)C3CCCCC3)[C@H]2c2ccccc2)cc1C', 'EC50', '1 to 10 µM'),
  ('COc1ccc(-c2ccccc2)cc1CN[C@H]1[C@H](C(C)(C)C)[C@@H](C(=O)O)N(C(=O)[C@H]2CCCCO2)[C@H]1c1cccnc1N(C)C', 'EC50', '1 to 10 µM'),
  ('COc1cccc([C@H]2[C@@H](NCc3cc(C(F)(F)F)ccc3OC)[C@H](C(C)(C)C)[C@@H](C(=O)O)N2C(=O)C2CCCOC2)n1 (mixture of isomers)', 'EC50', '1 to 10 µM'),
  ('COc1cc2c(cc1CN[C@H]1[C@H](C(C)(C)C)[C@@H](C(=O)O)N(C(=O)OC(C)C)[C@H]1c1ccccc1C)CCC2', 'EC50', '1 to 10 µM'),
  ('COc1ccc(C(C)(C)C)cc1CN[C@H]1[C@H](C(C)(C)C)[C@@H](C(=O)O)N(C(=O)c2ccc3c(c2)OCCO3)[C@H]1c1cccnc1N(C)C', 'EC50', '1 to 10 µM'),
  ('COc1ccc(OC(F)(F)F)cc1CN[C@H]1[C@H](C(C)(C)C)[C@@H](C(=O)O)N(C(=O)OC(C)C)[C@H]1c1cccnc1OC(C)C', 'EC50', '1 to 10 µM'),
  ('COc1ccc(C(C)(C)C)cc1CN[C@H]1[C@H](C(C)(C)C)[C@@H](C(=O)O)N(C(=O)[C@@H]2[C@@H](C(F)(F)F)[C@@H]3CC[C@H]2O3)[C@H]1c1ccccc1 (relative stereo)', 'EC50', '1 to 10 µM'),
  ('COc1nc2ccccc2cc1CN[C@H]1[C@H](C(C)(C)C)[C@@H](C(=O)O)N(C(=O)[C@@H]2CCCO2)[C@H]1c1ccccc1C(C)C', 'EC50', '1 to 10 µM'),
  ('COc1ccc(C(C)(C)C)cc1CN[C@H]1[C@H](C(C)(C)C)[C@@H](C(=O)O)N(C(=O)CC2(O)CCCC2)[C@H]1c1ccccc1', 'EC50', '1 to 10 µM'),
  ('COc1ncc(C(C)c2ccccc2)cc1CN[C@H]1[C@H](C(C)(C)C)[C@@H](C(=O)O)N(C(=O)C2CCCCC2)[C@H]1c1ccccc1 (stereo partly drawn)', 'EC50', '< 1 µM');
